The measured values listed here are drawn from paper PMC9825171.

# System Name: RBPJ (53–474) V263A (Mus musculus, UniProt P31266 53-474, V263A)
# Sequence (P31266 53-474 V263A): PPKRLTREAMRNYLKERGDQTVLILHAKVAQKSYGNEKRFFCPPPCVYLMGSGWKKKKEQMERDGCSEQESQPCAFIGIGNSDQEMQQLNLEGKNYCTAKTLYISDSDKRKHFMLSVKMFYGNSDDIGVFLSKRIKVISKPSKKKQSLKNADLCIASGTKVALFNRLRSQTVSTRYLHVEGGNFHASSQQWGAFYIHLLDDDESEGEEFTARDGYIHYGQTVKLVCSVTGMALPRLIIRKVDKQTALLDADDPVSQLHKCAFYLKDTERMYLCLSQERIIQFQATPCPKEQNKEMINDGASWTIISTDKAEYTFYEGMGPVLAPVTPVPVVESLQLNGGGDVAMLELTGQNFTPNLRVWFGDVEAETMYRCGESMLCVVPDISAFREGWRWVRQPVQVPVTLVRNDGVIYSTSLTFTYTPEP
# Protocol Summary: ITC
Readout Type: Kd

| Binder | Reported |
| --- | --- |
| MENVKKATATTTWMVPTAQ (peptide, UniProt Q96JM7-2 52-70, looked up) [L3MBTL3 (52–70) wild-type peptide (19-mer)] | 3000 nM |
